# Tested on: pronase E
# assay: Target specificity: pronase E activity with a-factor–based peptide
# Type: biochemical
# measurement conditions: 100 µM compound; relative to DMSO control = 100%
readout label: % Activity Pronase (%)
Quick note: give the figure in %, leave out the unit.

Returns the measured % Activity Pronase for the input compound. Input: "O=S(=O)(O)CCCc1cccc2ccccc12"
100.9

Returns the measured % Activity Pronase for the input compound. Input: "Cn1ncc2c(NCCc3ccccc3)nc(Cl)nc21"
89.2

Returns the measured % Activity Pronase for the input compound. Input: "O=S(=O)(O)c1cc(O)c2c(O)c(N=Nc3cccc4ccccc34)c(S(=O)(=O)O)cc2c1"
103.8

Returns the measured % Activity Pronase for the input compound. Input: "O=C(CCN1CC2CCC(CC2)C1)c1cccs1"
104.4

Returns the measured % Activity Pronase for the input compound. Input: "O=[N+]([O-])/C=C/c1cc2ccccc2[nH]1"
93.3

Returns the measured % Activity Pronase for the input compound. Input: "O=C(O)c1ccc(Oc2nc3ccccc3s2)cc1"
104.3

====

For each of the compounds below, state its % Activity Ste24p.
# system tested: yeast Ste24p (Saccharomyces cerevisiae)
# Sequence (P47154 whole entry): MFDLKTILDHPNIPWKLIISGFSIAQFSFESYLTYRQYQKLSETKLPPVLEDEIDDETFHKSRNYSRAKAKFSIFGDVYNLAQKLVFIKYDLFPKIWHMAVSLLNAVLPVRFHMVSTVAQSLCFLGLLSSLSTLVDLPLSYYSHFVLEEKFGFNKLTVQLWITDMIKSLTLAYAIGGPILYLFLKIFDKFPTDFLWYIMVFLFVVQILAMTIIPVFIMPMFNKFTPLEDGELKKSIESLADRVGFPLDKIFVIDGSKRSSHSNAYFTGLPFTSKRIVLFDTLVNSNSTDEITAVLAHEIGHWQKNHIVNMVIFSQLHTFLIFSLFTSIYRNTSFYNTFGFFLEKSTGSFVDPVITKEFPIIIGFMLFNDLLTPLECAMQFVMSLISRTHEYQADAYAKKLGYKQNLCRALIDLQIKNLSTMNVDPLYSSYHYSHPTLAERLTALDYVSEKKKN
# assay: Target specificity: Ste24p activity
# Assay type: biochemical
# measurement conditions: 100 µM compound; relative to DMSO control = 100%
Quick note: give the figure in %, leave out the unit.

Returns the measured % Activity Ste24p for the input compound. Input: "O=C(O)c1ccc(Oc2nc3ccccc3s2)cc1"
92.8

Returns the measured % Activity Ste24p for the input compound. Input: "Cn1ncc2c(NCCc3ccccc3)nc(Cl)nc21"
93.0

Returns the measured % Activity Ste24p for the input compound. Input: "O=[N+]([O-])/C=C/c1cc2ccccc2[nH]1"
89.2

Returns the measured % Activity Ste24p for the input compound. Input: "O=S(=O)(O)CCCc1cccc2ccccc12"
97.2

Returns the measured % Activity Ste24p for the input compound. Input: "Nc1nc(SCc2ccccc2Cl)cc(C(=O)O)n1"
131.4

Returns the measured % Activity Ste24p for the input compound. Input: "O=C(CCN1CC2CCC(CC2)C1)c1cccs1"
98.6

====

# system tested: bovine trypsin (Bos taurus, UniProt P00760)
# Sequence (P00760 24-246): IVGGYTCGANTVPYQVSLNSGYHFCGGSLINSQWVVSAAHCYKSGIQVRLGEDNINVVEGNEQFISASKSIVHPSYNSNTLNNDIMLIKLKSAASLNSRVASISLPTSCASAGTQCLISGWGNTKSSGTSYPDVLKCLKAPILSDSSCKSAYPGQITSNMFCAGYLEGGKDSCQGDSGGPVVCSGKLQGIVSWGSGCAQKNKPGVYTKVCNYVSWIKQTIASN
# assay: Target specificity: trypsin activity with a-factor–based peptide
# Format: biochemical
# measurement conditions: 100 µM compound; relative to DMSO control = 100%
For each of the compounds below, state its % Activity Trypsin.
Quick note: give the figure in %, leave out the unit.

Returns the measured % Activity Trypsin for the input compound. Input: O=S(=O)(O)CCCc1cccc2ccccc12 [Compound 1]
94.2

Returns the measured % Activity Trypsin for the input compound. Input: O=C(CCN1CC2CCC(CC2)C1)c1cccs1 [Compound 6]
111.5

Returns the measured % Activity Trypsin for the input compound. Input: O=S(=O)(O)c1cc(O)c2c(O)c(N=Nc3cccc4ccccc34)c(S(=O)(=O)O)cc2c1 [Compound 3]
99.3

Returns the measured % Activity Trypsin for the input compound. Input: O=C(O)c1ccc(Oc2nc3ccccc3s2)cc1 [Compound 7]
111.0

Returns the measured % Activity Trypsin for the input compound. Input: Cn1ncc2c(NCCc3ccccc3)nc(Cl)nc21 [Compound 2]
115.1

Returns the measured % Activity Trypsin for the input compound. Input: Nc1nc(SCc2ccccc2Cl)cc(C(=O)O)n1 [Compound 5]
94.3

Returns the measured % Activity Trypsin for the input compound. Input: O=[N+]([O-])/C=C/c1cc2ccccc2[nH]1 [Compound 8]
101.8
